# Target under test: BACE1 (Homo sapiens, UniProt P56817)
# Construct: purchased Beyotime Biotech
# Sequence (P56817 46-501, species assumed): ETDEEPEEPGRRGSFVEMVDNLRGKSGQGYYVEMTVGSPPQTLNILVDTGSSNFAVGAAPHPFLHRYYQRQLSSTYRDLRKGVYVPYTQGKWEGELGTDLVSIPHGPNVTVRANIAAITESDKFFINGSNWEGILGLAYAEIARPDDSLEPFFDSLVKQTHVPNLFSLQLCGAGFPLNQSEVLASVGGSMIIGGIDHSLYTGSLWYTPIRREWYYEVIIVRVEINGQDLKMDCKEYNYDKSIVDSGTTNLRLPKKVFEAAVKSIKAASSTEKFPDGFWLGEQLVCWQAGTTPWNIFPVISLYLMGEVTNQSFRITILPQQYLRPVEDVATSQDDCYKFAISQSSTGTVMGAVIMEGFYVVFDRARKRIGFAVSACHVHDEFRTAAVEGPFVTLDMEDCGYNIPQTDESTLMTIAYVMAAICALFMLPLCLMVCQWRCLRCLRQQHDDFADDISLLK
# Assay name: BACE1 Inhibitor Screening Kit (FRET substrate)
# Type: biochemical
# Experimental setup: 200 μM compound
Everything with inhibition at 200 µM lower than 10% is Condition not met; everything else, including exactly 10%, is Condition met.

Kindly determine if inhibition at 200 µM recorded for Cn1c(=O)c2c(ncn2Cc2nnn(CCCCCC(=O)Nc3cccc(Cl)c3)n2)n(C)c1=O [Compound 14] is above or exactly 10%.
Condition not met

Could you please find out whether Cn1c(=O)c2c(ncn2Cc2nnnn2CCCCCCC(=O)Nc2ccc(F)c(Cl)c2)n(C)c1=O [Compound 26] has inhibition at 200 µM that meets 10% or exceeds it?
Condition not met

inhibition at 200 µM >= 10% for Cn1c(=O)c2c(ncn2Cc2nnn(CCCCCCC(=O)Nc3cccc(Cl)c3)n2)n(C)c1=O [Compound 20] ?
Condition met

hey, is inhibition at 200 µM for this one >= 10%? Cn1c(=O)c2c(ncn2Cc2nnn(CCCCCC(=O)Oc3ccccc3)n2)n(C)c1=O [Compound 18]
Condition not met

Kindly determine if inhibition at 200 µM recorded for Cn1c(=O)c2c(ncn2Cc2nnn(CCCCC(=O)Nc3ccc(I)cc3F)n2)n(C)c1=O [Compound 12] is above or exactly 10%.
Condition met

Please indicate if the recorded inhibition at 200 µM for Cn1c(=O)c2c(ncn2Cc2nnn(CCCCCCC(=O)Nc3ccc(Cl)cc3)n2)n(C)c1=O [Compound 21] meets or exceeds 10%.
Condition met

Does Cn1c(=O)c2c(ncn2Cc2nnnn2CCCCCCC(=O)Nc2ccc(I)cc2F)n(C)c1=O [Compound 27] have a reported inhibition at 200 µM of at least 10%?
Condition not met

// inclusive: inhibition at 200 µM at least 10%? input: Cn1c(=O)c2c(ncn2Cc2nnn(CCCCCCC(=O)Nc3ccc(Br)cc3)n2)n(C)c1=O [Compound 22]
Condition not met

// inclusive: inhibition at 200 µM at least 10%? input: Cn1c(=O)c2c(ncn2Cc2nnn(CCCCCCC(=O)Nc3ccc(F)c(Cl)c3)n2)n(C)c1=O [Compound 23]
Condition met

====

Exercise: for every item that follows, state its recorded inhibition at 200 µM.
# Target under test: BACE1 (Homo sapiens, UniProt P56817)
# Construct: purchased Beyotime Biotech
# Assay name: BACE1 Inhibitor Screening Kit (FRET substrate)
# Assay type: biochemical
# Experimental setup: 200 μM compound
# number only, unit % dropped from output

Note down inhibition at 200 µM recorded for COc1ccc(OC(=O)CCCCCCn2nnc(Cn3cnc4c3c(=O)n(C)c(=O)n4C)n2)cc1
0.74

Tell us which inhibition at 200 µM value is on record for Cn1c(=O)c2c(ncn2Cc2nnn(CCCCCC(=O)Nc3ccc(F)c(Cl)c3)n2)n(C)c1=O
-1.54

Specify measured inhibition at 200 µM for COc1ccc(OC(=O)CCCCCn2nnc(Cn3cnc4c3c(=O)n(C)c(=O)n4C)n2)cc1 .
-1.23

Return reported inhibition at 200 µM. Input molecule: Cn1c(=O)c2c(ncn2Cc2nnnn2CCCCCCC(=O)Nc2ccc(Br)cc2)n(C)c1=O
-0.48

// Input: Cn1c(=O)c2c(ncn2Cc2nnn(CCCCCC(=O)Nc3ccc(I)cc3F)n2)n(C)c1=O . Output its inhibition at 200 µM only.
18.7

Entry COc1ccc(OC(=O)CCCCn2nnc(Cn3cnc4c3c(=O)n(C)c(=O)n4C)n2)cc1 needs its inhibition at 200 µM filled in; supply it.
1.4

Report inhibition at 200 µM for Cn1c(=O)c2c(ncn2Cc2nnn(CCCCCC(=O)Nc3ccc(Br)cc3)n2)n(C)c1=O
8.94

Answer with the recorded inhibition at 200 µM for the molecule listed here: Cn1c(=O)c2c(ncn2Cc2nnn(CCCCC(=O)Nc3ccccc3)n2)n(C)c1=O
-0.32
